These measurements were taken from paper PMC7355801.

// values below are reported Double log / Kb × 10^3 [dm^3.mol^-1]
Biological target: bovine serum albumin (BSA) (Bos taurus)
Construct: gene ALB; mature serum albumin, 583 residues, monomer
Sequence (P02769 25-607): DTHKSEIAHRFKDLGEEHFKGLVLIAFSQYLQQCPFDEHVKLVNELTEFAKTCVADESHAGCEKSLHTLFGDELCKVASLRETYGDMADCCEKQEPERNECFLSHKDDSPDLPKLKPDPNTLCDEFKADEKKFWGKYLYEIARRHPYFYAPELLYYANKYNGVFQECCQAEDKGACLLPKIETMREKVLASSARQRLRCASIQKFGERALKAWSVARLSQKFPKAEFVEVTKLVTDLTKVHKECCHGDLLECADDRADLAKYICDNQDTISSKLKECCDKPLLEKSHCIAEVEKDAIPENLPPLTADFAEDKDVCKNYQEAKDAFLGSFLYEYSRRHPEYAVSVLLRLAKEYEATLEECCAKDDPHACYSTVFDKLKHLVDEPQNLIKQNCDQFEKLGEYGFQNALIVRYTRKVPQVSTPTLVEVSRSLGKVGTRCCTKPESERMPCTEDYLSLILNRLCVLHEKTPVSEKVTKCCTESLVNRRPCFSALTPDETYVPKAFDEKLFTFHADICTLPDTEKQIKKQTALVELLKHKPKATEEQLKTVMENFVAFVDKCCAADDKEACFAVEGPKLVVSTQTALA
Experiment: intrinsic fluorescence quenching, excitation […] nm
Type: binding
Details: 298 K, pH 7.4, no site marker

* Cc1cc2c(c(=O)n1C)C(=O)N(CN1CCN(c3cccc(C(F)(F)F)c3)CC1)C2=O | 8.32 × 10^3 dm^3·mol^−1
* COc1nc(C)cc2c1C(=O)N(CCN1CCOCC1)C2=O | 6.24 × 10^3 dm^3·mol^−1
* COc1ccccc1N1CCN(CN2C(=O)c3cc(C)n(C)c(=O)c3C2=O)CC1 | 11.51 × 10^3 dm^3·mol^−1
* Cc1cc2c(c(=O)n1C)C(=O)N(CN1CCN(c3ccccc3)CC1)C2=O | 5.37 × 10^3 dm^3·mol^−1

Proceed to the following item.
Record request: Double log / Kb × 10^3 [dm^3.mol^-1] value, item "COc1nc(C)cc2c1C(=O)N(CN1CCCC1)C2=O"
4.82 × 10^3 dm^3·mol^−1
